test system: HOP-62 NSCLC; assay: NCI-60 one-dose screen, 48 h; settings: 10 µM unless noted
This is part of a sample that, as a whole, favours compounds with a hit. Of some 83,000 tested, about 20% had one in any assay. The source made the active and inactive calls. Rule for the calls: active = growth percent below 10; inactive = the rest.
Possible outcomes: 1.0 (active), 0.0 (inactive)

>  <Molecule>
CCCC(=O)NC(c1cccnc1)c1ccc2c(C)ccnc2c1O (stereo unspecified)

>  <Category>
0.0

$$$$
>  <Molecule>
Nc1ccc(-c2nnc(SCc3ccc(O)c4ncccc34)o2)cc1

>  <Category>
1.0

$$$$
>  <Molecule>
CCCCCCNC(=O)Oc1ccc(/C(=C(/C)c2ccc(Cl)cc2)c2ccc(OCCN3CCCC3)cc2)cc1

>  <Category>
0.0

$$$$
>  <Molecule>
C#C[C@]1(O)CC[C@H]2[C@@H]3CC=C4c5sc(Nc6cc(Cl)ccn6)nc5CC[C@]4(C)[C@H]3CC[C@@]21C

>  <Category>
0.0

$$$$
>  <Molecule>
CN1CCN(c2ccc(C(=O)/C=C/c3ccc(Cl)c(C(F)(F)F)c3)cc2)CC1

>  <Category>
0.0

$$$$
>  <Molecule>
Cc1cc(C(=O)Nc2ccc(SC#N)cc2)c(C)o1

>  <Category>
0.0

$$$$
>  <Molecule>
Cc1ccc(/C=C/c2nn3c(-c4ccco4)nnc3s2)cc1

>  <Category>
0.0

$$$$
>  <Molecule>
COc1ccc(N2CCN(C(=O)CSc3ccc(-c4nc5cc(C)c(C)cc5[nH]4)cn3)CC2)cc1

>  <Category>
0.0

$$$$
>  <Molecule>
Cn1cc2c(c1)-c1c(sc3nc(-c4ccc(NC(=O)Nc5cc(C(C)(C)C)on5)cc4)cn13)CC2

>  <Category>
0.0

$$$$
>  <Molecule>
C=C(C)[C@@H]1CC[C@]2(C(=O)NCCCN(CCC#N)CCC#N)CC[C@]3(C)[C@H](CC[C@@H]4[C@@]5(C)CCC(=O)C(C)(C)[C@@H]5CC[C@]43C)[C@@H]12

>  <Category>
0.0

$$$$
>  <Molecule>
CCOC(=O)c1c(Nc2ccccc2)nn2c(-c3ccc(Br)cc3)ccnc12

>  <Category>
0.0

$$$$
>  <Molecule>
COc1cc(/C=C/C(=O)c2ccc(NC(=O)COc3cccc4cccnc34)cc2)cc(OC)c1OC

>  <Category>
0.0

$$$$
>  <Molecule>
C=CCn1c(SCC(=O)c2ccc(OC)cc2)nnc1-c1ccc(OC)cc1

>  <Category>
0.0

$$$$
>  <Molecule>
C/C(=N/Nc1nc(N/N=C(/C)c2ccc([N+](=O)[O-])cc2)nc(N2CCOCC2)n1)c1ccc([N+](=O)[O-])cc1

>  <Category>
0.0

$$$$
>  <Molecule>
O=C(NCCCNc1cc(-c2cn(-c3ccccc3)nc2-c2cccc(O)c2)ccn1)Nc1cc(C(F)(F)F)cc(C(F)(F)F)c1

>  <Category>
0.0

$$$$
>  <Molecule>
CC(C)(C)OC(=O)N1CCN(S(=O)(=O)/N=C2\NC(=O)NC2=C(Cl)Cl)CC1

>  <Category>
0.0

$$$$
>  <Molecule>
CNC(=O)c1c(NC(=O)c2ccc(F)cc2F)sc2c1CCC(=O)C2

>  <Category>
0.0

$$$$
>  <Molecule>
Cc1ccc(NC(=O)N[C@@H](Cc2cc(F)cc(F)c2)C(=O)NC2C(=O)N3CCC[C@H]3C(=O)N3CCCC[C@H]3C(=O)N[C@@H](C)C(=O)N3C[C@H](C)C[C@H]3C(=O)O[C@H]2C)c(F)c1 (stereo partly specified)

>  <Category>
0.0

$$$$
>  <Molecule>
CCN1C(=O)N(CC)C2SC(N/N=C/c3cccs3)=NC21 (stereo unspecified)

>  <Category>
0.0

$$$$
>  <Molecule>
Oc1ccc(CSc2nnc(-c3ccncc3)o2)c2cccnc12

>  <Category>
0.0

$$$$
>  <Molecule>
COC(=O)c1nc(-c2ccc(C)cc2)oc1S(=O)(=O)N1CCN(c2oc(-c3ccccc3)nc2C#N)CC1

>  <Category>
0.0

$$$$
>  <Molecule>
CC(=O)c1sc(Nc2cccc(Nc3nc(C)c(C)s3)c2)nc1C

>  <Category>
0.0

$$$$
>  <Molecule>
Oc1ccccc1-c1nnc(SCc2ccc(O)c3ncccc23)o1

>  <Category>
0.0

$$$$
>  <Molecule>
NS(=O)(=O)Oc1ccc2nc(Nc3ccc(F)c(F)c3)ccc2c1

>  <Category>
0.0

$$$$
>  <Molecule>
N#C/C(=C\c1ccc(N2CCCCC2)cc1)C(=O)Nc1sc2c(c1C#N)CCC2

>  <Category>
0.0

$$$$
>  <Molecule>
CCC(=O)Nc1cc(Nc2cc(NC3CC3)n3ncc(C#N)c3n2)ccc1C

>  <Category>
0.0

$$$$
>  <Molecule>
Cc1cc(NS(=O)(=O)c2ccc(-c3cnc(C4CC4)o3)cc2)ccc1I

>  <Category>
0.0

$$$$
>  <Molecule>
C#Cc1ccc(NC(=O)c2ccc(/C=C/C(=O)c3nccn3C)cc2)c(F)c1

>  <Category>
1.0

$$$$
>  <Molecule>
Cn1ccnc1C(=O)/C=C/c1ccc(C(=O)Nc2ccc(NC(=O)CCNC(=O)c3csc(Br)n3)cc2)cc1

>  <Category>
0.0

$$$$
>  <Molecule>
C=CCn1c(SCC(=O)Nc2cccc(C(=O)/C=C/c3ccc(C)cc3)c2)nc2ccccc2c1=O

>  <Category>
0.0

$$$$
>  <Molecule>
O=C1[C@H]2Cc3c([nH]c4ccccc34)[C@@H](c3c(Cl)cccc3Cl)N2C(=O)CN1C1CCN(Cc2ccccc2)CC1

>  <Category>
0.0

$$$$
>  <Molecule>
O=C(NNc1nc2cc(F)cc(F)c2n2cccc12)c1ccncn1

>  <Category>
0.0

$$$$
>  <Molecule>
CC(=O)Nc1ccc(NC(=O)Nc2cccc(-c3nc(-c4ccc(NC(=O)c5cccs5)cc4Cl)no3)c2)cc1C(F)(F)F

>  <Category>
1.0

$$$$
>  <Molecule>
Cc1ccc(-c2csc(N/N=C/c3nc4ccccc4n3C3CC3)n2)cc1

>  <Category>
0.0

$$$$
>  <Molecule>
C[C@@H]1C[C@H]2C(=O)OCC(NC(=O)[C@H](Cc3cc(F)cc(F)c3)NC(=O)Nc3ccc(Cl)cc3F)C(=O)N3CCC[C@H]3C(=O)N3CCCC[C@H]3C(=O)N[C@@H](C)C(=O)N2C1 (stereo partly specified)

>  <Category>
0.0

$$$$
>  <Molecule>
N#Cc1c(NC(=O)c2ccc(F)c(Cl)c2)sc2c1CCC(=O)C2

>  <Category>
1.0

$$$$

Values from PubChem BioAssay (NCI)
